Each record here notes measured EC50.
target: Luciferin 4-monooxygenase (Photinus pyralis); assay: inhibition of purified Photinus pyralis luciferase – biochemical, luminescence, dose response (AID 1891)
Sequence (P08659 whole entry): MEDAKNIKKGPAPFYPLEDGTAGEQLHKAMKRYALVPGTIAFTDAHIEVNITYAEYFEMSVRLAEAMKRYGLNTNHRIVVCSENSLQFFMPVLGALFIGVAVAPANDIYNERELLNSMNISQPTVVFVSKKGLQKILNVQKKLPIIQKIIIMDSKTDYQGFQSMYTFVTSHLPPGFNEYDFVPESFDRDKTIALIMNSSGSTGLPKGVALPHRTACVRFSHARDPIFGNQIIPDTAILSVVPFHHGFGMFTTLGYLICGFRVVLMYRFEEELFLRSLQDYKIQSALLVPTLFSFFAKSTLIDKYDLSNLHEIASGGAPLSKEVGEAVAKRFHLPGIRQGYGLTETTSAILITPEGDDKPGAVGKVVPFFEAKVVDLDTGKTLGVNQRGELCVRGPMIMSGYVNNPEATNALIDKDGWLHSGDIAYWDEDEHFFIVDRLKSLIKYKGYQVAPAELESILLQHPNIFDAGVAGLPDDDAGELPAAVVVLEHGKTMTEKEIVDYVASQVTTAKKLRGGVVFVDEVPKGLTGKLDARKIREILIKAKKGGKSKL
The source made the active and inactive calls. Cut-off read from the data, not from the text of the source: actives have a measured EC50 and inactives only a lower limit.

- Molecule: "Cc1cccc(-c2cnn(-c3ccccc3)c2N)c1"
  EC50: "46 µM (active)"
- Molecule: "Cc1nnc(NC(=O)CSc2cn(CCNC(=O)c3ccccc3)c3ccccc23)s1"
  EC50: "> 112 µM (not active)"
- Molecule: "O=C(C(Cc1ccccc1)n1cccc1)N1CCN(c2ncccn2)CC1 (stereo not drawn)"
  EC50: "> 112 µM (not active)"
- Molecule: "COc1cc(Cl)ccc1OCc1cc(C(=O)N2C[C@]3(C)C[C@H]2CC(C)(C)C3)no1"
  EC50: "27 µM (active)"
- Molecule: "COc1ccc(N2CCN(CCCN)CC2)cc1"
  EC50: "> 112 µM (not active)"
- Molecule: "CSc1ccc(C(=O)C2CCCN(S(=O)(=O)c3c(C)noc3C)C2)cc1 (stereo not drawn)"
  EC50: "> 112 µM (not active)"
- Molecule: "Cc1ccnc(NC(=O)c2ccoc2C)c1"
  EC50: "17.5 µM (active)"
- Molecule: "Cn1c(=O)c2c(nc(CN3CCOCC3)n2CC(=O)c2ccccc2)n(C)c1=O"
  EC50: "> 112 µM (not active)"
- Molecule: "COc1ccccc1N1CCN(c2ccc(-c3ccccc3)nn2)CC1"
  EC50: "3.72 µM (active)"
- Molecule: "COc1cccc2oc3ccc(C#Cc4ccccn4)cc3c(=O)c12"
  EC50: "1.19 µM (active)"
- Molecule: "CC(=O)c1cccc(-n2nnnc2SCC(=O)N2CCCC2)c1"
  EC50: "> 112 µM (not active)"
- Molecule: "Cc1c(Cl)cccc1NC(=O)Nc1ccc(C(=O)N2CCCC2)cc1"
  EC50: "1.94 µM (active)"
- Molecule: "Cc1ccc(/C=N/NC(=O)c2nn(C)cc2Cl)cc1"
  EC50: "19.9 µM (active)"
